- Study target: α-glucosidase from Saccharomyces cerevisiae (EC 3.2.1.20) (Saccharomyces cerevisiae, UniProt P53341)
- Sequence (P53341 whole entry): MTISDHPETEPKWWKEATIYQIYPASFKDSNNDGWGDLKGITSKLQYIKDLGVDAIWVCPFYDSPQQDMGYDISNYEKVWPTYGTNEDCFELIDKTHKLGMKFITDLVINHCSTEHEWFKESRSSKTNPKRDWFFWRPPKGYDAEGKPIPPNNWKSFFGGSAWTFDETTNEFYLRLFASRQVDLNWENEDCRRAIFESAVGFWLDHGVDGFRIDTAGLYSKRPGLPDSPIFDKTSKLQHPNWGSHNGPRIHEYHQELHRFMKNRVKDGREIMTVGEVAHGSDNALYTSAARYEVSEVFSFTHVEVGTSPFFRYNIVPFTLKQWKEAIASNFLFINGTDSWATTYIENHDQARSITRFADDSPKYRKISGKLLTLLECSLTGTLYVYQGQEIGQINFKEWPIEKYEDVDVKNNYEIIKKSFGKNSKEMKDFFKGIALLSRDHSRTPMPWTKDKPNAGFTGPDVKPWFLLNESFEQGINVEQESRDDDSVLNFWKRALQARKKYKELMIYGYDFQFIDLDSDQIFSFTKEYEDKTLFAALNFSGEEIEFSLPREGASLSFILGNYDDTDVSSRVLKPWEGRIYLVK
Reported endpoint: pIC50
Scale: pIC50 equals -log10([C]), with [C] in mol/L.

Read the entry O=C(/C=C/c1ccc(O)c(O)c1)O[C@H](Cc1ccc(O)c(O)c1)C(=O)O [Rosmarinic acid] and write its reported pIC50.
6.30
